All figures here come from ChEMBL document CHEMBL1201862.

# target: Estrogen receptor (Homo sapiens, UniProt P03372);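 also: potency for inhibiting coactivator peptide recruitment to the receptor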
# Sequence (P03372 whole entry): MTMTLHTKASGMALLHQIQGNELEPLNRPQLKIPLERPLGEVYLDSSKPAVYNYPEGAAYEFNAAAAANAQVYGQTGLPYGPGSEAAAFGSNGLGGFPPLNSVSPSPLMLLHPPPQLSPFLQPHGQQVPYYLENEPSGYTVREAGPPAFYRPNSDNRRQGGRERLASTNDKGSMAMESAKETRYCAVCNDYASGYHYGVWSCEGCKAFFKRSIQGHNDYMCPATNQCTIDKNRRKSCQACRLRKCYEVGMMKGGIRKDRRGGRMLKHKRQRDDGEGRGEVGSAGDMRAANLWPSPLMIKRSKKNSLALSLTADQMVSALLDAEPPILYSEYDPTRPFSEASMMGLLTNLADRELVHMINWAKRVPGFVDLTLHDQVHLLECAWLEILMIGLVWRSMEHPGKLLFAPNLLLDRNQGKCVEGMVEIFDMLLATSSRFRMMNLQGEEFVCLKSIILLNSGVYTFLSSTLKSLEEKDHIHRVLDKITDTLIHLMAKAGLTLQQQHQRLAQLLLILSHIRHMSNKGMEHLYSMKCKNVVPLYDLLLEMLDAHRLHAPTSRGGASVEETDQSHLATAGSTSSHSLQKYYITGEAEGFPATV
Calls of active or inactive are those of the source.
observation_type: IC50

Here are 4 molecules together with their reported answers.
>>> test_result("O=C(NNC(=O)c1ccc(SCC2CCCO2)c([N+](=O)[O-])c1)c1ccc(Cl)c([N+](=O)[O-])c1 (stereo not given)")
"23.3 µM (active)"
>>> test_result("Cc1cc(SCC(=O)NC(=O)NCc2ccco2)nc2c(C)cccc12")
"32 µM (not active)"
>>> test_result("Cc1ccc(N/C=C2/C(=O)N(c3ccc4c(c3)OCO4)C(=O)c3ccccc32)cc1")
"19.8 µM (active)"
>>> test_result("CCOC(=O)c1c(Nc2nc(C)c(C(=O)NC)s2)sc(C)c1C")
"42.3 µM (not active)"

Consider the molecule O=C(COC(=O)CCC(=O)c1cccs1)NCc1ccco1 and give its measured IC50. 11.9 µM (active)

====

# target: Replicative DNA helicase DnaB (Mycobacterium tuberculosis)
# Sequence (P9WMR3 whole entry): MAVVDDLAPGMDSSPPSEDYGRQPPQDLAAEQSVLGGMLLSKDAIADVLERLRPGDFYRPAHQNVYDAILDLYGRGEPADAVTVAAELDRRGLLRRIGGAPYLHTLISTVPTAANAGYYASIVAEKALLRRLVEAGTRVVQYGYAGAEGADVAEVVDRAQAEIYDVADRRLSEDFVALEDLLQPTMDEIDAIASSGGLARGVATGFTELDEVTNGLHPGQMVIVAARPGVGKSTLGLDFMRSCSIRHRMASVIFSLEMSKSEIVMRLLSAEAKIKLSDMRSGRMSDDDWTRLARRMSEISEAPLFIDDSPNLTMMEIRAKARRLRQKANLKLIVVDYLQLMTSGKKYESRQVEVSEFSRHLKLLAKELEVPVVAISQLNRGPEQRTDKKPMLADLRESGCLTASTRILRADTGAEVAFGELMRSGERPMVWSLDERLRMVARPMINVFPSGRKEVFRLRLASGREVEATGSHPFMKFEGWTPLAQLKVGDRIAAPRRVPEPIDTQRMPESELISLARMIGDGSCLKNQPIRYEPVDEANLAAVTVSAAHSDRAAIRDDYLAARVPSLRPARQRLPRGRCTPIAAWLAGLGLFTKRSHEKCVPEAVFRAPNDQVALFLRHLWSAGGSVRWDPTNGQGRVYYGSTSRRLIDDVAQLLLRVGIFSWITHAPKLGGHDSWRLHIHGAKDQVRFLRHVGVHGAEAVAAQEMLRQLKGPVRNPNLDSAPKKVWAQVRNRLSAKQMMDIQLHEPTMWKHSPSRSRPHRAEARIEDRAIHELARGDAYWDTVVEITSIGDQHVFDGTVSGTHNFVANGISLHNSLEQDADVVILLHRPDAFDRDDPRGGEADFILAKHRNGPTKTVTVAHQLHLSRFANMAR
# test_details: DnaB intein splicing inhibitors, dose response, biochemical, cell-free fluorescence (AID 449749)
# Type: functional
Activity calls are given as the source filed them.
Mark one answer only. Choices: active, inactive

Solved cases below.
>>> class_name("Cc1[nH]nc2c1C1(CCC(c3ccccc3)CC1)C(C#N)=C(N)O2 (stereo unspecified)")
"active"
>>> class_name("COc1ccc(S(=O)(=O)Nc2c(O)ccc3ccccc23)cc1OC")
"active"
>>> class_name("CC1=NN(c2ccccc2)C(=O)/C1=C\\c1c[nH]nc1-c1ccccc1")
"active"
>>> class_name("COc1ccc(-c2c(=O)n(OC)c3ccccc3[n+]2[O-])cc1OC")
"inactive"
>>> class_name("CCOc1ccc(/C=C2\\SC(=S)N(CCC(=O)Nc3ccccc3C(=O)O)C2=O)cc1")
"active"

Read the next record carefully.
Give the logged outcome of this assay for the following compound: CCCc1n[nH]c2c1C(c1ccc(Br)s1)C(C#N)=C(N)O2 (stereo unspecified) active
